Give measured EC50 for each item. Keep answers brief.
target: mu-opioid receptor (Homo sapiens); assay: biochemical; details: class symbols; read-out: GTP Activity

CCc1cc(CC)cc(N2C(N)=C(c3nc4ccccc4[nH]3)C(=O)C2(C)C)c1 [compound 156]	0.1 to 1 µM

Your task in this section: give EC50 for each listed record.
1. CC(C)(C)c1ccccc1N1CC(=O)C(c2nc3ccccc3[nH]2)=C1N [compound 48]
2. COc1cc(OC)cc(-n2nc(Nc3ccccc3)c(-c3nc4ccccc4[nH]3)c2O)c1 [compound 197]
3. COc1cc(OC)cc(N2C(N)=C(c3nc4ccccc4[nH]3)C(=O)C23CCNC3)c1 (centres unmarked) [compound 182]
4. CNC1=C(c2nc3ccccc3[nH]2)C(=O)C(C)(C)N1c1cc(O)cc(OC)c1 [compound 129]
5. COCC1C(=O)C(c2nc3ccccc3[nH]2)=C(N)N1c1cc(OC)cc(OC)c1 (centres unmarked) [compound 68]
6. CNC1=C(c2nc3ccccc3[nH]2)C(=O)C2(COC2)N1c1cc(OC)cc(OC)c1 [compound 194]
7. CCOc1cc(OC)cc(N2C(N)=C(c3nc4ccccc4[nH]3)C(=O)C2(C)C)c1 [compound 157]

1 to 10 µM
1 to 10 µM
0.1 to 1 µM
0.1 to 1 µM
0.1 to 1 µM
< 0.1 µM
0.1 to 1 µM

Your task in this section: give EC50 for each listed record.
1. CC[C@@H]1C(=O)C(c2nc3ccccc3[nH]2)=C(NC)N1c1cc(OC)cc(OC)c1 [compound 184]
2. CCC1C(=O)C(c2nc3ccccc3[nH]2)=C(N)N1c1cc(OC)cc(OC)c1 (centres unmarked) [compound 54]
3. COc1cc(OC)cc(-n2c(=O)c(-c3nc4ccccc4[nH]3)c(N)n2C(C)C)c1 [compound 74]
4. C=C1C(=O)C(c2nc3ccccc3[nH]2)=C(N)N1c1cc(OC)cc(OC)c1 [compound 177]
5. CNC1=C(c2nc3ccccc3[nH]2)C(=O)C2(CN(C)C2)N1c1cc(OC)cc(OC)c1 [compound 193]
6. COc1ccc(OC)c(N2CC(=O)C(c3nc4c(C)cccc4[nH]3)=C2N)c1 [compound 16]

0.1 to 1 µM
0.1 to 1 µM
1 to 10 µM
0.1 to 1 µM
0.1 to 1 µM
1 to 10 µM

Your task in this section: give EC50 for each listed record.
1. COc1cc(OC)cc(N2C(N)=C(c3nc4ccccc4[nH]3)C(=O)C23CCC3)c1 [compound 108]
2. COc1cc(OC)cc(N2C(N)=C(c3nc4ccccc4[nH]3)C(=O)C2C(C)C)c1 (centres unmarked) [compound 55]
3. CNC1=C(c2nc3ccccc3[nH]2)C(=O)CN1c1cc(OC)cc(OC)c1 [compound 58]

["< 0.1 µM", "0.1 to 1 µM", "0.1 to 1 µM"]

---

target: mu-opioid receptor (Homo sapiens); assay: biochemical; conditions: class symbols; read-out: GTP Activity
Give measured EC50 for each item. Keep answers brief.

Answered cases to consult:
Cc1ccc(C)c(N2CC(=O)C(c3nc4cc(C)ccc4[nH]3)=C2N)c1 [compound 15]	1 to 10 µM
COc1cc(OC)cc(-n2c(N)c(-c3nc4ccccc4[nH]3)c(=N)n2C)c1 [compound 110]	0.1 to 1 µM
Cc1ccc(N2C(N)=C(c3nc4ccccc4[nH]3)C(=O)C2(C)C)c(C)c1 [compound 101]	0.1 to 1 µM
CNC1=C(c2nc3ccccc3[nH]2)C(=O)C(C)(C)N1c1ccc(C)cc1C [compound 104]	1 to 10 µM
CC[C@H]1C(=O)C(c2nc3ccccc3[nH]2)=C(NC)N1c1cc(OC)cc(OC)c1 [compound 185]	< 0.1 µM
CCNC1=C(c2nc3ccccc3[nH]2)C(=O)CN1c1cc(OC)cc(OC)c1 [compound 88]	0.1 to 1 µM

Your task in this section: give EC50 for each listed record.
1. CCC1(C)C(=O)C(c2nc3ccccc3[nH]2)=C(N)N1c1cc(OC)cc(OC)c1 (centres unmarked) [compound 53]
2. Cc1cc(C)cc(N2CC(=O)C(c3nc4c(C)cccc4[nH]3)=C2N)c1 [compound 14]

0.1 to 1 µM
1 to 10 µM

---

target: mu-opioid receptor (Homo sapiens); assay: biochemical; settings: class symbols; read-out: GTP Activity
quantity: EC50

COc1cc(OC)cc(N2C(N)=C(c3nc4ccccc4[nH]3)C(=O)[C@@H]2C)c1	1 to 10 µM
COc1cc(OC)cc(N2CC(=O)C(c3nc4cc(C)ccc4[nH]3)=C2N)c1	1 to 10 µM
CNC1=C(c2nc3ccccc3[nH]2)C(=O)[C@@H](C)N1c1cc(OC)cc(OC)c1	< 0.1 µM
COc1cc(OC)cc(N2CC(=O)C(c3nc4cscc4[nH]3)=C2N)c1	1 to 10 µM
CC[C@@H]1C(=O)C(c2nc3ccccc3[nH]2)=C(N)N1c1cc(OC)cc(OC)c1	1 to 10 µM
COc1cc(OC)cc(N2C(Nc3ccccc3)=C(c3nc4ccccc4[nH]3)C(=O)C2(C)C)c1	1 to 10 µM

Your task in this section: give EC50 for each listed record.
1. NC1=C(c2nc3ccccc3[nH]2)C(=O)CN1c1ccccc1Oc1ccccc1
2. CCc1cc(OC)cc(N2C(N)=C(c3nc4ccccc4[nH]3)C(=O)C2(C)C)c1

["1 to 10 µM", "0.1 to 1 µM"]

---

target: mu-opioid receptor (Homo sapiens, UniProt P35372); assay: biochemical; conditions: […]; class symbol combines EC50 and efficacy; read-out: GTP Activity
Sequence (P35372 whole entry, species assumed): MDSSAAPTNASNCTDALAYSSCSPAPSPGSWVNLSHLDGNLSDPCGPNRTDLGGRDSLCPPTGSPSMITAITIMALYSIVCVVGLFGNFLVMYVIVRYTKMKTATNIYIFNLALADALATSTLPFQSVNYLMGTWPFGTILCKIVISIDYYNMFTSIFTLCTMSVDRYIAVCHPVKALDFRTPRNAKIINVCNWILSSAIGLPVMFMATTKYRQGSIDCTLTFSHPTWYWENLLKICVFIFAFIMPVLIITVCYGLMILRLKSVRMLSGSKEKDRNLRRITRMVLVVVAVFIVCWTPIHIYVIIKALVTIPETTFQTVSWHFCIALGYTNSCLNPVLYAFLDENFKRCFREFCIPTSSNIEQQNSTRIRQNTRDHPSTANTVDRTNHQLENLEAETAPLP
Give measured EC50 for each item. Keep answers brief.

Answered cases to consult:
COc1cc(OC)cc(N2C(N)=C(c3nc4ccccc4[nH]3)C(=O)C2(C)CCO)c1 (stereo not shown) [compound 216]	100 to 1000 nM
CNc1c(-c2nc3ccccc3[nH]2)c(=O)n(CCO)n1-c1cc(OC)cc(OC)c1 [compound 265]	100 to 1000 nM
CNC1=C(c2nc3ccccc3[nH]2)C(=O)[C@](C)(CCO)N1c1cc(OC)cc(OC)c1 [compound 262]	< 100 nM
COc1cc(OC)cc(N2C(N)=C(c3nc4ccccc4[nH]3)C(=O)C2CCNC(=O)c2ccccc2)c1 (stereo not shown) [compound 236]	< 100 nM
COc1cc(OC)cc(N2C(N)=C(c3nc4ccccc4[nH]3)C(=O)C2CCN2CCCC2)c1 (stereo not shown) [compound 237]	1000 to 10000 nM
[2H]C1CC2(CC1=O)C(=O)C(c1nc3ccccc3[nH]1)=C(NC)N2c1cc(OC)cc(OC)c1 (stereo not shown) [compound 314]	< 100 nM
COc1cc(OC)cc(N2C(N)=C(c3nc4ccccc4[nH]3)C(=O)[C@]23C[C@@H](O)C3)c1 [compound 206]	100 to 1000 nM
CNC1=C(c2nc3ccccc3[nH]2)C(=O)C(C)(CO)N1c1cc(OC)cc(OC)c1 (stereo not shown) [compound 201]	< 100 nM

Your task in this section: give EC50 for each listed record.
1. COc1cc(OC)cc(N2C(N)=C(c3nc4ccccc4[nH]3)C(=O)C2(C)c2ccc(O)cc2)c1 (stereo not shown) [compound 209]
2. CNC1=C(c2nc3ccccc3[nH]2)C(=O)C(C)(CCO)N1c1cc(OC)cc(OC)c1 (stereo not shown) [compound 217]
3. COc1cc(OC)cc(N2C(N)=C(c3nc4ccccc4[nH]3)C(=O)C2CCN2CCOCC2)c1 (stereo not shown) [compound 234]
4. CNC1=C(c2nc3ccccc3[nH]2)C(=O)[C@](C)(CNC(C)=O)N1c1cc(OC)cc(OC)c1 [compound 307]
5. CNc1c(-c2nc3ccccc3[nH]2)c(=O)n(CCOC)n1-c1cc(OC)cc(OC)c1 [compound 266]
6. COc1cc(OC)cc(N2C(N)=C(c3nc4ccccc4[nH]3)C(=O)C2CCNC(C)=O)c1 (stereo not shown) [compound 233]
7. COc1cc(OC)cc(N2C(N)=C(c3nc4ccccc4[nH]3)C(=O)C2CCN(C)C(=O)c2ccccc2)c1 (stereo not shown) [compound 257]
8. CNC1=C(c2nc3ccccc3[nH]2)C(=O)C2(CC(O)C2)N1c1cc(OC)cc(OC)c1 (stereo not shown) [compound 259]

["1000 to 10000 nM", "< 100 nM", "100 to 1000 nM", "100 to 1000 nM", "< 100 nM", "< 100 nM", "100 to 1000 nM", "< 100 nM"]

Your task in this section: give EC50 for each listed record.
1. CNC1=C(c2nc3ccccc3[nH]2)C(=O)[C@]2(C[C@H](O)C2)N1c1cc(OC)cc(OC)c1 [compound 260]
2. COc1cc(OC)cc(N2C(N)=C(c3nc4ccccc4[nH]3)C(=O)C2CCNc2ccccc2)c1 (stereo not shown) [compound 232]
3. COc1cc(OC)cc(N2C(N)=C(c3nc4ccccc4[nH]3)C(=O)C2CCCCN)c1 (stereo not shown) [compound 204]
4. COCC1(C)C(=O)C(c2nc3ccccc3[nH]2)=C(N)N1c1cc(OC)cc(OC)c1 (stereo not shown) [compound 296]
5. COc1cc(OC)cc(N2C(N)=C(c3nc4ccccc4[nH]3)C(=O)[C@@H]2CCO)c1 [compound 242]
6. CNC1=C(c2nc3ccccc3[nH]2)C(=O)C(C)(CC(C)=O)N1c1cc(OC)cc(OC)c1 (stereo not shown) [compound 276]

1. 100 to 1000 nM
2. 100 to 1000 nM
3. 100 to 1000 nM
4. 100 to 1000 nM
5. < 100 nM
6. 100 to 1000 nM

Your task in this section: give EC50 for each listed record.
1. COc1cc(OC)cc(N2C(N)=C(c3nc4ccccc4[nH]3)C(=O)C23CC(=O)C3)c1 [compound 207]
2. COc1cc(OC)cc(N2C(N)=C(c3nc4ccccc4[nH]3)C(=O)C2CCO)c1 (stereo not shown) [compound 203]
3. COCCC1(C)C(=O)C(c2nc3ccccc3[nH]2)=C(N)N1c1cc(OC)cc(OC)c1 (stereo not shown) [compound 219]
4. CNC1=C(c2nc3ccccc3[nH]2)C(=O)[C@]2(CCOC2)N1c1cc(OC)cc(OC)c1 [compound 213]
5. CNC1=C(c2nc3ccccc3[nH]2)C(=O)C(C)(CNC(=O)COC)N1c1cc(OC)cc(OC)c1 (stereo not shown) [compound 283]
6. CNC1=C(c2nc3ccccc3[nH]2)C(=O)[C@](C)(CO)N1c1cc(OC)cc(OC)c1 [compound 212]
7. CNC1=C(c2nc3ccccc3[nH]2)C(=O)[C@@](C)(CNC(=O)COC)N1c1cc(OC)cc(OC)c1 [compound 318]

100 to 1000 nM
< 100 nM
100 to 1000 nM
< 100 nM
< 100 nM
< 100 nM
< 100 nM

Your task in this section: give EC50 for each listed record.
1. CNC1=C(c2nc3ccccc3[nH]2)C(=O)C2(CCCN(C(C)=O)C2)N1c1cc(OC)cc(OC)c1 (stereo not shown) [compound 273]
2. CNC1=C(c2nc3ccccc3[nH]2)C(=O)C(CO)(CCl)N1c1cc(OC)cc(OC)c1 (stereo not shown) [compound 264]

1. 100 to 1000 nM
2. 100 to 1000 nM
